# study target: interaction between HIF-1α and p300 (His-HIF-1α / GST-p300) (Homo sapiens, UniProt Q09472+Q16665)
# Construct: corresponding to the C-terminal 390 amino acids into vector pET28a; A plasmid containing the N-terminal 595 amino acids of human p300; made in house; host or cells: E. coli
# Sequence (Q16665 437-826 limits assumed): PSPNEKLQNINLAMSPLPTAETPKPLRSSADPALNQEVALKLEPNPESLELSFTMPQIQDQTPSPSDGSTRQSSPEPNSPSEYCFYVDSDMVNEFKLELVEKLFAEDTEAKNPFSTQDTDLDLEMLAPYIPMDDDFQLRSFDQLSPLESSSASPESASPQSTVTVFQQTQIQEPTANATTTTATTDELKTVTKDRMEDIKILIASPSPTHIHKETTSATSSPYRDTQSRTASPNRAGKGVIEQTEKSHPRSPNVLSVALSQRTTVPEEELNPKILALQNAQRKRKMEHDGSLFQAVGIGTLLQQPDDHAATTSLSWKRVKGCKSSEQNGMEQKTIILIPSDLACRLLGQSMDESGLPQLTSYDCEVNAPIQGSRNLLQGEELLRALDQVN
# Sequence (Q09472 1-595 limits assumed): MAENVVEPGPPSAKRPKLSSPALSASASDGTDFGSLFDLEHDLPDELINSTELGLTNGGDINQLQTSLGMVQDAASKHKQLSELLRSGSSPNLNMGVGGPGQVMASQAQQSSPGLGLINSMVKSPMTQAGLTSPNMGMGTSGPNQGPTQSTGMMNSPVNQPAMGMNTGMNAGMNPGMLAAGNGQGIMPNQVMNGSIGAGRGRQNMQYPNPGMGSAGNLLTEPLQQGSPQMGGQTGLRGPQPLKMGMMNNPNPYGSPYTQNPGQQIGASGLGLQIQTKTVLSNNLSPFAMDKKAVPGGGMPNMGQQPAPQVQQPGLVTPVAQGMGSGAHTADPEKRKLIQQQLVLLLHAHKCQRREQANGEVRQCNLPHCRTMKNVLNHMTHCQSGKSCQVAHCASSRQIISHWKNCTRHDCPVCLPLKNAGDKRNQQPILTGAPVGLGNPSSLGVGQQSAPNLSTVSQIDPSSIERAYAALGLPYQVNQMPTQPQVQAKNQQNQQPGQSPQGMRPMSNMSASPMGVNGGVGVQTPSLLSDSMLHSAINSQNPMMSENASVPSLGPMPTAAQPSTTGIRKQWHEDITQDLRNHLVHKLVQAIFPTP
# protocol text: Primary assay: fluorescence-based (DELFIA) screening assay for inhibition of the HIF-1α/p300 interaction
# Assay type: binding
# Experimental: Candidate compounds were assessed for their ability to inhibit the interaction between HIF-1α and p300 using a high throughput fluorescence-based screening assay (DELFIA) as follows. […] The assay was performed in 96-well Polysorb plates (Nalge Nunc International®, Rochester, N.Y., USA) as follows. […] Plates were read on a Victor 2 plate reader (from Wallac®).
Quick reference: IC50 of the listed items.
Enter your answer as a number in µM; do not include the unit.

Below are worked cases with known answers.
compound	test result
COc1ccc(OC)c(N2C(=O)/C(=C/c3ccco3)C(=O)NC2=S)c1 [PX106274]	29
CCN(CC)c1ccc(C=C2C(=O)N(c3ccccc3)C(=S)N(c3ccccc3)C2=O)cc1 [PX089647]	100
O=C1NC(=O)C(=C/C=N/Nc2ccccc2)C(=O)N1 [PX089620]	80
CC(=O)Nc1ccc(C=C2C(=O)NC(=S)NC2=O)cc1 [PX089632]	15

Now take the following compound into account.
Entry CCOc1ccc(Br)cc1C=C1C(=O)NC(=S)NC1=O [PX089633] ; IC50 = 70
